System Name: ligand binding domain of human FXR (Homo sapiens (Human), UniProt Q96RI1)
Sequence (Q96RI1 262-486): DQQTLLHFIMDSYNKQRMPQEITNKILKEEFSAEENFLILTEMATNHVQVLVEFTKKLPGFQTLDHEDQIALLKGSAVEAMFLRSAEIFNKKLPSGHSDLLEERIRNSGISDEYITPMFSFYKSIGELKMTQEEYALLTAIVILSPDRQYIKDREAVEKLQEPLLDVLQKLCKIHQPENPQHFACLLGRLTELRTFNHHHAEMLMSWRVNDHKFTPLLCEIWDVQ
Test Name: FXR ligand binding assay (LanthaScreen FRET);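 further: TR-FRET coactivator recruitment: ligand-induced binding of fluorescein-labelled SRC2-2 peptide to GST-tagged FXR LBD detected via Tb anti-GST antibody, serial compound dilutions, 3-parameter logistic fit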
Experimental Parameters: read-out: % Efficacy
Endpoint Name: Emax

Emax on ligand binding domain of human FXR (Homo sapiens (Human), UniProt Q96RI1) for O=C(O)c1ccc(N2[C@@H]3CC[C@H]2C[C@@H](OC(=O)c2c(-c4c(Cl)cccc4Cl)noc2C2CC2)C3)cc1F [Compound I-41] is 92%

Emax on ligand binding domain of human FXR (Homo sapiens (Human), UniProt Q96RI1) for COc1cc(C(=O)O)ccc1N1[C@@H]2CC[C@H]1C[C@@H](OC(=O)c1c(-c3c(Cl)cccc3Cl)noc1C1CC1)C2 [Compound I-40] is 103%

Emax on ligand binding domain of human FXR (Homo sapiens (Human), UniProt Q96RI1) for O=C(O)c1cc(C(F)(F)F)c2nc(N3[C@@H]4CC[C@H]3C[C@@H](OC(=O)c3c(-c5c(Cl)cccc5Cl)noc3C3CC3)C4)sc2c1 [Compound I-10] is 102%

Emax on ligand binding domain of human FXR (Homo sapiens (Human), UniProt Q96RI1) for O=C(O)c1cc(F)cc(S(=O)(=O)N2[C@@H]3CC[C@H]2C[C@@H](OC(=O)c2c(-c4c(Cl)cccc4Cl)noc2C2CC2)C3)c1 [Compound I-56] is 56%

Emax on ligand binding domain of human FXR (Homo sapiens (Human), UniProt Q96RI1) for Cn1cc(C(=O)O)c2ccc(N3[C@@H]4CC[C@H]3C[C@@H](OC(=O)c3c(-c5c(Cl)cccc5Cl)noc3C3CC3)C4)cc21 [Compound I-28] is 94%

Emax on ligand binding domain of human FXR (Homo sapiens (Human), UniProt Q96RI1) for O=C(O)c1ccc(N2[C@@H]3CC[C@H]2C[C@@H](OC(=O)c2c(-c4c(Cl)cccc4Cl)noc2C2CC2)C3)cc1C(F)(F)F [Compound I-37] is 50%

Emax on ligand binding domain of human FXR (Homo sapiens (Human), UniProt Q96RI1) for O=C(O)c1ncc(N2[C@@H]3CC[C@H]2C[C@@H](OC(=O)c2c(-c4c(Cl)cccc4Cl)noc2C2CC2)C3)cn1 [Compound I-54] is 46%

Emax on ligand binding domain of human FXR (Homo sapiens (Human), UniProt Q96RI1) for COc1cc(C(=O)O)cc2sc(N3[C@@H]4CC[C@H]3C[C@@H](OC(=O)c3c(-c5c(F)cccc5F)noc3C3CC3)C4)nc12 [Compound I-17] is 44%

Emax on ligand binding domain of human FXR (Homo sapiens (Human), UniProt Q96RI1) for Cc1cc(C(=O)O)cc2sc(N3[C@@H]4CC[C@H]3C[C@@H](OC(=O)c3c(-c5c(Cl)cccc5Cl)noc3C3CC3)C4)nc12 [Compound I-11] is 110%

Emax on ligand binding domain of human FXR (Homo sapiens (Human), UniProt Q96RI1) for O=C(O)c1cc(OC(F)(F)F)c2nc(N3[C@@H]4CC[C@H]3C[C@@H](OC(=O)c3c(C56CCC(CC5)CC6)noc3C3CC3)C4)sc2c1 [Compound I-57] is 26%

Emax on ligand binding domain of human FXR (Homo sapiens (Human), UniProt Q96RI1) for COc1cc(N2[C@@H]3CC[C@H]2C[C@@H](OC(=O)c2c(-c4c(Cl)cccc4Cl)noc2C2CC2)C3)ccc1C(=O)O [Compound I-39] is 64%

Emax on ligand binding domain of human FXR (Homo sapiens (Human), UniProt Q96RI1) for CS(=O)(=O)NC(=O)c1ccc(N2[C@@H]3CC[C@H]2C[C@@H](OC(=O)c2c(-c4c(Cl)cccc4Cl)noc2C2CC2)C3)c(Cl)c1 [Compound I-52] is 110%

Emax on ligand binding domain of human FXR (Homo sapiens (Human), UniProt Q96RI1) for Cc1cc(C(=O)O)cc2sc(N3[C@@H]4CC[C@H]3C[C@@H](OC(=O)c3c(-c5c(Cl)cccc5Cl)noc3C3(F)CC3)C4)nc12 [Compound I-59] is 95%

Emax on ligand binding domain of human FXR (Homo sapiens (Human), UniProt Q96RI1) for O=C(NCCS(=O)(=O)O)c1cc(F)c2nc(N3[C@@H]4CC[C@H]3C[C@@H](OC(=O)c3c(-c5c(Cl)cccc5Cl)noc3C3CC3)C4)sc2c1 [Compound I-5] is 77%

Emax on ligand binding domain of human FXR (Homo sapiens (Human), UniProt Q96RI1) for CS(=O)(=O)NC(=O)c1ccc(N2[C@@H]3CC[C@H]2C[C@@H](OC(=O)c2c(-c4c(Cl)cccc4Cl)noc2C2CC2)C3)cc1 [Compound I-44] is 124%

Emax on ligand binding domain of human FXR (Homo sapiens (Human), UniProt Q96RI1) for CN1c2cc(N3[C@@H]4CC[C@H]3C[C@@H](OC(=O)c3c(-c5c(Cl)cccc5Cl)noc3C3CC3)C4)ccc2C(=O)C1(F)F [Compound I-30] is 40%

Emax on ligand binding domain of human FXR (Homo sapiens (Human), UniProt Q96RI1) for COc1cc2nc(N3[C@@H]4CC[C@H]3C[C@@H](OC(=O)c3c(-c5c(F)cccc5F)noc3C3CC3)C4)sc2cc1C(=O)O [Compound I-18] is 66%

Emax on ligand binding domain of human FXR (Homo sapiens (Human), UniProt Q96RI1) for CCc1cc(C(=O)O)cc2sc(N3[C@@H]4CC[C@H]3C[C@@H](OC(=O)c3c(-c5c(Cl)cccc5Cl)noc3C3CC3)C4)nc12 [Compound I-60] is 119%

Emax on ligand binding domain of human FXR (Homo sapiens (Human), UniProt Q96RI1) for O=C(O)c1cc(OC(F)(F)F)c2nc(N3[C@@H]4CC[C@H]3C[C@@H](OC(=O)c3c(-c5c(Cl)cccc5Cl)noc3C3CC3)C4)sc2c1 [Compound I-9] is 136%

Emax on ligand binding domain of human FXR (Homo sapiens (Human), UniProt Q96RI1) for O=C(O)c1cc(F)cc(N2[C@@H]3CC[C@H]2C[C@@H](OC(=O)c2c(-c4c(Cl)cccc4Cl)noc2C2CC2)C3)c1 [Compound I-42] is 38%

Emax on ligand binding domain of human FXR (Homo sapiens (Human), UniProt Q96RI1) for NC(=O)c1cc(F)c2nc(N3[C@@H]4CC[C@H]3C[C@@H](OC(=O)c3c(-c5c(Cl)cccc5Cl)noc3C3CC3)C4)sc2c1 [Compound I-3] is 60%

Emax on ligand binding domain of human FXR (Homo sapiens (Human), UniProt Q96RI1) for O=C(O)c1ccc(N2[C@@H]3CC[C@H]2C[C@@H](OC(=O)c2c(-c4c(Cl)cccc4Cl)noc2C2CC2)C3)c(F)c1 [Compound I-35] is 92%

Emax on ligand binding domain of human FXR (Homo sapiens (Human), UniProt Q96RI1) for COc1cc(C(=O)O)cc2sc(N3[C@@H]4CC[C@H]3C[C@@H](OC(=O)c3c(-c5c(Cl)cccc5Cl)noc3C3CC3)C4)nc12 [Compound I-8] is 105%

Emax on ligand binding domain of human FXR (Homo sapiens (Human), UniProt Q96RI1) for COc1cc2nc(N3[C@@H]4CC[C@H]3C[C@@H](OC(=O)c3c(-c5c(Cl)cccc5Cl)noc3C3CC3)C4)sc2cc1C(=O)O [Compound I-7] is 125%
